system: SK-MEL-5; test: NCI tumour cell line growth inhibition, 48 h
The source made the active and inactive calls. Rule as the data show it: active = GI50 up to about 1.1 µM and inactive = higher.
I'd appreciate it if you could supply GI50 values for the items below.

# compound, recorded.endpoint, experimental.value
rows = [
    ("Cc1cc(Cc2c(F)c(F)c(C(c3cc(C)no3)c3c(F)c(F)c(F)c(F)c3F)c(F)c2F)on1 (stereo not drawn)", "GI50", "7.16 µM (inactive)"),
    ("COc1cccc2c1C(=O)C=CC2=O", "GI50", "15.3 µM (inactive)"),
    ("CCOC(=O)C(=CNC(=S)Nc1c(CC)cccc1CC)C(=O)OCC", "GI50", "> 100 µM (inactive)"),
]

Give GI50 for each listed item.
1. CCCCCCN1CCc2c(C)c(C#N)c3nc4ccccc4n3c21
2. Cc1n[nH]c(CC#N)n1
3. CC(=N\c1ccncc1)/C(C)=N/c1ccncc1
4. CCC(=O)NC(Nc1cccc(F)c1)(C(F)(F)F)C(F)(F)F
5. COc1ccccc1C(=O)c1c(NCc2ccccc2)c(=O)c1=O

**Result**
1. 11.4 µM (inactive)
2. > 100 µM (inactive)
3. 19.5 µM (inactive)
4. 78.7 µM (inactive)
5. > 100 µM (inactive)

These measurements were taken from ChEMBL document CHEMBL1201862.
